The reported numbers originate from ChEMBL document CHEMBL1145176.

Hi! I'm sharing some IC50 results obtained with Somatostatin receptor type 1 (Homo sapiens, UniProt P30872).
Sequence (P30872 whole entry): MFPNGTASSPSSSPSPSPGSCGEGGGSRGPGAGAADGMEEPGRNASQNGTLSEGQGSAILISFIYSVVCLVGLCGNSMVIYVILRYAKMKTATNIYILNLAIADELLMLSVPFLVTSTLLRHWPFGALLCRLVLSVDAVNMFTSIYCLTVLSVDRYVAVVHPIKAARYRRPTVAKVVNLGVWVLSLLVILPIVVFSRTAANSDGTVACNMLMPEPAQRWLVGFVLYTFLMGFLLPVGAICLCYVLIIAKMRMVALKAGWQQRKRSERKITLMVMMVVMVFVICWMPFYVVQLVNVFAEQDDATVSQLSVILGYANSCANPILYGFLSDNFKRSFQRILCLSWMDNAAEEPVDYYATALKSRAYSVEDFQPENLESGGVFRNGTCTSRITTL
Your answer should be a plain number; it is taken to be in nM.

Sample answers from the record:
{"columns": ["entry-smiles", "IC50 / nM"],
 "data": [
  ["C[C@@H](O)[C@@H]1NC(=O)[C@H](Cc2ccc(O)cc2)NC(=O)[C@H]([C@@H](C)O)NC(=O)[C@H](CCCCN)NC(=O)[C@@H](Cc2c[nH]c3ccccc23)NC(=O)[C@H](Cc2ccccc2)NC(=O)[C@H](Cc2ccccc2)NC(=O)[C@H](CCCCN)NC(=O)[C@@H](N)CSSC[C@@H](C(=O)O)NC(=O)[C@H](CO)NC1=O", 10],
  ["CC(C)NCc1ccc(C[C@@H]2NC(=O)[C@H](N(C)C(=O)c3ccc4ccccc4c3)NC(=O)[C@H](Cc3ccccc3)NC(=O)[C@H](Cc3ccccc3)NC(=O)[C@H](CCCCN)NC(=O)[C@@H](N)CSSC[C@@H](C(=O)O)NC(=O)[C@H](CO)NC(=O)[C@H]([C@@H](C)O)NC(=O)[C@H](Cc3ccc(O)cc3)NC(=O)[C@H]([C@@H](C)O)NC2=O)cc1", 3.3]
]}

I have this compound here, "CC(C)NCc1ccc(C[C@@H]2NC(=O)[C@@H](Cc3c[nH]c4ccccc34)NC(=O)[C@H](Cc3ccccc3)NC(=O)[C@H](Cc3ccccc3)NC(=O)[C@H](CCCCN)NC(=O)[C@@H](N)CSSC[C@@H](C(=O)O)NC(=O)[C@H](CO)NC(=O)[C@H]([C@@H](C)O)N(C)C(=O)[C@H](Cc3ccccc3)NC(=O)[C@H]([C@@H](C)O)NC2=O)cc1" , and I need its recorded IC50.
75
